test system: SETVI: green foxtail (Setaria viridis); assay: Post-emergent Test III, herbicidal activity in wheat and barley; type: in vivo; conditions: Table 9; dose for 80 percent growth reduction, probit analysis; 21 d
Kindly state GR80 SETVI for each of the entries shown.

For Nc1cc(-c2ccc(Br)cc2)nc(C(=O)O)c1Cl , what is its reported GR80 SETVI? 70 g ai/ha

For Nc1cc(-c2ccc(C(F)(F)F)c(F)c2F)nc(C(=O)O)c1Cl , what is its reported GR80 SETVI? 56 g ai/ha

For COC(=O)c1nc(-c2ccc(Br)cc2F)nc(N)c1OC , what is its reported GR80 SETVI? >140 g ai/ha

For COc1c(N)nc(-c2ccc(C(F)(F)F)c(F)c2F)nc1C(=O)O , what is its reported GR80 SETVI? 87 g ai/ha
